Each entry below carries its reported IC50.
# system: NKTR (Homo sapiens)
# Construct: NKTR (UniProtKB Entry P30414: residues 7–179); host or cells: E. coli BL21(DE3)
# Sequence (P30414 7-179): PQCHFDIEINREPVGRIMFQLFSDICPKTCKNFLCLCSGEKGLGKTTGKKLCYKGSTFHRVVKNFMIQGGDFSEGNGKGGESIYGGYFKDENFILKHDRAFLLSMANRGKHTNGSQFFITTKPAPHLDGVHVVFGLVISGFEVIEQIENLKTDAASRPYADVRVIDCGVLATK
# assay-summary: Chymotrypsin coupled prolyl-isomerase assay
# Assay type: biochemical
# protocol-conditions: prolyl-isomerase inhibition, 5 nM cyclophilin; read-out: IC50 NKTR

molecule	assay-readout	observed-result
NCCOCCNC(=O)[C@@H]1CCNC(=O)/C=C/C(=O)N2CCC[C@](Cc3ccccc3)(C2)C(=O)N[C@@H](Cc2ccc(-c3ccccc3)cc2)C(=O)NCc2ccccc2CC(=O)N1	IC50	~100 µM
NCCOCCNC(=O)[C@@H]1CCNC(=O)/C=C/C(=O)N2CCC[C@](Cc3ccccc3)(C2)C(=O)N[C@@H](Cc2ccc(-c3ccc(/C=C/C(=O)O)cc3)cc2)C(=O)NCc2ccccc2CC(=O)N1	IC50	~13 µM
NC(=O)[C@@H]1CCNC(=O)/C=C/C(=O)N2CCC[C@](Cc3ccccc3)(C2)C(=O)N[C@@H](Cc2ccc(-c3cccc(B(O)O)c3)cc2)C(=O)NCc2ccccc2CC(=O)N1	IC50	> 10 µM
NCCOCCNC(=O)[C@@H]1CCNC(=O)/C=C/C(=O)N2CCC[C@](Cc3ccccc3)(C2)C(=O)N[C@@H](Cc2ccc(-c3ccc(CC(C(=O)O)C(=O)O)cc3)cc2)C(=O)NCc2ccccc2CC(=O)N1	IC50	> 100 µM

Query block: Would you mind telling me what IC50 value was observed for `NCCOCCNC(=O)[C@@H]1CCNC(=O)/C=C/C(=O)N2CCC[C@](Cc3ccccc3)(C2)C(=O)N[C@@H](Cc2ccc(-c3ccc(C(CC(=O)O)CC(=O)O)cc3)cc2)C(=O)NCc2ccccc2CC(=O)N1` ?
Result block: > 50 µM

Query block: Please give the measured IC50 for this molecule: NCCOCCNC(=O)C1CCNC(=O)C=CC(=O)N2CCCC(C2)C(=O)NC(Cc2ccco2)C(=O)NCc2ccccc2CC(=O)N1 (stereo not shown)
Result block: ~60 µM

Query block: Requested field: IC50. Item: C[N+]1=C(C=CC=CC=C2N(CCCCCC(=O)NCCNC(=O)C3CCNC(=O)C=CC(=O)N4CCCC(Cc5ccccc5)(C4)C(=O)NC(Cc4ccc(-c5ccc(CC(C(=O)O)C(=O)O)cc5)cc4)C(=O)NCc4ccccc4CC(=O)N3)c3ccccc3C2(C)C)C(C)(C)c2ccccc21 (stereo not shown)
Result block: ~7 µM

---

# system: CypE (Homo sapiens)
# Construct: PPIE (UniProtKB Entry Q9UNP9: residues 131–301); host or cells: E. coli BL21(DE3)
# Sequence (Q9UNP9 131-301): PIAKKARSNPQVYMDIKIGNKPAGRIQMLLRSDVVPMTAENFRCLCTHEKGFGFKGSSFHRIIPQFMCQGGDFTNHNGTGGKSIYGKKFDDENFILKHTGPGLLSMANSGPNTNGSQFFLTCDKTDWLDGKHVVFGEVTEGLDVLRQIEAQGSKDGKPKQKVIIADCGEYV
# assay-summary: Chymotrypsin coupled prolyl-isomerase assay
# Type: biochemical
# protocol-conditions: prolyl-isomerase inhibition; read-out: IC50 CypE
assay-readout: pIC50
FYI, pIC50 means -log10 of a concentration in mol per litre.

Query block: Missing value: pIC50, CypE (Homo sapiens), entry NC(=O)C1CCNC(=O)C=CC(=O)N2CCCC(Cc3ccccc3)(C2)C(=O)NC(Cc2ccc(-c3ccc(C=O)c(B(O)O)c3)cc2)C(=O)NCc2ccccc2CC(=O)N1 (stereo not shown) . Fill in?
Result block: 7.89

---

Parameter pIC50: see the listing below.
# system: CypD K118A (Homo sapiens, UniProt P30405, K118A)
# Sequence (P30405 45-207 K118A): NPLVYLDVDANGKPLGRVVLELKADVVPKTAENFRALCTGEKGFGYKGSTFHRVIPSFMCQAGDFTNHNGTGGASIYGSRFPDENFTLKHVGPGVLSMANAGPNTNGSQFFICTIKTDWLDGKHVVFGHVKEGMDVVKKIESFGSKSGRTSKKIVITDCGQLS
# assay-summary: Chymotrypsin coupled prolyl-isomerase assay
# protocol-conditions: prolyl-isomerase inhibition
Friendly reminder that pIC50 comes from taking -log10 of the concentration in mol/L.

Below are worked cases with known answers.
smiles-code	pIC50
NCCOCCNC(=O)[C@@H]1CCNC(=O)/C=C/C(=O)N2CCC[C@](Cc3ccccc3)(C2)C(=O)N[C@@H](Cc2ccc(-c3ccc(CCC(=O)O)cc3)cc2)C(=O)NCc2ccccc2CC(=O)N1	7.15
NCCOCCNC(=O)[C@@H]1CCNC(=O)/C=C/C(=O)N2CCC[C@](Cc3ccccc3)(C2)C(=O)N[C@@H](Cc2ccc(-c3ccc(C(CC(=O)O)CC(=O)O)cc3)cc2)C(=O)NCc2ccccc2CC(=O)N1	6.05
NCCOCCNC(=O)[C@@H]1CCNC(=O)/C=C/C(=O)N2CCC[C@](Cc3ccccc3)(C2)C(=O)N[C@@H](Cc2ccc(-c3ccc(C#CC(=O)O)cc3)cc2)C(=O)NCc2ccccc2CC(=O)N1	7.72

Proceed to the following item.
Query block: # returns recorded pIC50 (system: CypD K118A (Homo sapiens, UniProt P30405, K118A)) for `NCCOCCNC(=O)[C@@H]1CCNC(=O)/C=C/C(=O)N2CCC[C@](Cc3ccccc3)(C2)C(=O)N[C@@H](Cc2ccc(-c3ccc(CC(C(=O)O)C(=O)O)cc3)cc2)C(=O)NCc2ccccc2CC(=O)N1`
Result block: 7.14

---

# system: CypD (Homo sapiens)
# Sequence (P30405 45-207): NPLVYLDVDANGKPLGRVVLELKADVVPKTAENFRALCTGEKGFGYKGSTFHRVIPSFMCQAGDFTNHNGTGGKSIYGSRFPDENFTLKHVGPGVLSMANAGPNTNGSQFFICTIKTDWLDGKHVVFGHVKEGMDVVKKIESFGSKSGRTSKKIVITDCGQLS
# assay-summary: Chymotrypsin coupled prolyl-isomerase assay
Item-by-item account of IC50
Write the answer as a number in µM, unit excluded.

compound	system	IC50 / µM
NCCOCCNC(=O)C1CCNC(=O)C=CC(=O)NC2CCCC(C2)C(=O)NC(Cc2ccco2)C(=O)NCc2ccccc2CC(=O)N1 (stereo not shown) [Compound A29]	CypD (Homo sapiens)	6.2
NC(=O)C1CCNC(=O)C=CC(=O)N2CCCC(C2)C(=O)NC(Cc2ccco2)C(=O)NCc2ccccc2CC(=O)N1 (stereo not shown)	CypD (Homo sapiens)	18

Query block: Fill in: IC50 of NCCOCCNC(=O)C1CCNC(=O)C=CC(=O)NC2CCCC(C2)C(=O)NC(Cc2ccco2)C(=O)NCc2ccccc2CC(=O)N1 (stereo not shown) [Compound A28] is ___
Result block: 10

---

# system: CypD S123E (Homo sapiens, UniProt P30405, S123E)
# Sequence (P30405 45-207 S123E): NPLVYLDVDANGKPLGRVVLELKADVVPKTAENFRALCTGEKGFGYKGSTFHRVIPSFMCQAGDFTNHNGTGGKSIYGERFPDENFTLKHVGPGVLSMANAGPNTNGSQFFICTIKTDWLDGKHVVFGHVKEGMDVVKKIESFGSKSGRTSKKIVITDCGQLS
# assay-summary: Chymotrypsin coupled prolyl-isomerase assay
# protocol-conditions: prolyl-isomerase inhibition
assay-readout: pIC50
Here pIC50 is given on a logarithmic scale as minus log10 of the concentration in mol/L.

Consider the worked cases shown below.
smiles-code	observed-result
NCCOCCNC(=O)[C@@H]1CCNC(=O)/C=C/C(=O)N2CCC[C@](Cc3ccccc3)(C2)C(=O)N[C@@H](Cc2ccc(-c3ccc(CC(C(=O)O)C(=O)O)cc3)cc2)C(=O)NCc2ccccc2CC(=O)N1	6.62
NCCOCCNC(=O)[C@@H]1CCNC(=O)/C=C/C(=O)N2CCC[C@](Cc3ccccc3)(C2)C(=O)N[C@@H](Cc2ccc(-c3ccc(C(CC(=O)O)CC(=O)O)cc3)cc2)C(=O)NCc2ccccc2CC(=O)N1	6.10
NCCOCCNC(=O)[C@@H]1CCNC(=O)/C=C/C(=O)N2CCC[C@](Cc3ccccc3)(C2)C(=O)N[C@@H](Cc2ccc(-c3ccc(C#CC(=O)O)cc3)cc2)C(=O)NCc2ccccc2CC(=O)N1	8.10

Please examine the following record next.
Query block: Fill blank: measured pIC50 of the compound `NCCOCCNC(=O)[C@@H]1CCNC(=O)/C=C/C(=O)N2CCC[C@](Cc3ccccc3)(C2)C(=O)N[C@@H](Cc2ccc(-c3ccc(CCC(=O)O)cc3)cc2)C(=O)NCc2ccccc2CC(=O)N1` is ____.
Result block: 7.64

---

# system: CypA (Homo sapiens, UniProt P62937)
# Construct: PPIA (UniProtKB Entry P62937: residues 1–165); made in house; host or cells: E. coli BL21(DE3)
# Sequence (P62937 whole entry, the tested form may be a part): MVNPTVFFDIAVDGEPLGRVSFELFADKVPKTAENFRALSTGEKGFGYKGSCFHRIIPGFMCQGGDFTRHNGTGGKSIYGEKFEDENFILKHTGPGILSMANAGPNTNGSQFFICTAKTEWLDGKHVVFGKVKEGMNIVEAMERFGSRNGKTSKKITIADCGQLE
# assay-summary: Chymotrypsin coupled prolyl-isomerase assay
# Assay type: biochemical
# protocol-conditions: wild-type CypA; read-out: Wild-Type Cyclophilin Prolyl Isomerase Inhibition IC50 Values, CypA
pIC50: −log10 of the molar value.
Mark MET for reported pIC50 of 6 or greater; mark NOT MET for anything smaller.

# example entries with known answers
molecule	class-label
NCCOCCNC(=O)[C@@H]1CCNC(=O)/C=C/C(=O)N2CCC[C@](Cc3ccccc3)(C2)C(=O)N[C@@H](Cc2ccc(C(=O)c3ccccc3)cc2)C(=O)NCc2ccccc2CC(=O)N1	MET
NCCOCCNC(=O)[C@@H]1CCNC(=O)/C=C/C(=O)N2CCC[C@](Cc3ccccc3)(C2)C(=O)N[C@@H](Cc2ccc(-c3ccc(C(=O)O)cc3)cc2)C(=O)NCc2ccccc2CC(=O)N1	NOT MET
NCCOCCNC(=O)C1CCNC(=O)C=CC(=O)N2CCCC(C2)C(=O)NC(Cc2ccco2)C(=O)NCc2ccccc2CC(=O)N1 (centres unmarked)	NOT MET

Proceed to the following item.
Query block: Is pIC50 for `NC(=O)[C@@H]1CCNC(=O)/C=C/C(=O)N2CCC[C@](Cc3ccccc3)(C2)C(=O)N[C@@H](Cc2ccc(-c3cccc(B(O)O)c3)cc2)C(=O)NCc2ccccc2CC(=O)N1` at or above 6?
Result block: NOT MET

---

# system: PPWD1 (Homo sapiens, UniProt Q96BP3)
# Construct: PPWD1 (UniProtKB Entry Q96BP3: residues 473–646); host or cells: E. coli BL21(DE3)
# Sequence (Q96BP3 473-646): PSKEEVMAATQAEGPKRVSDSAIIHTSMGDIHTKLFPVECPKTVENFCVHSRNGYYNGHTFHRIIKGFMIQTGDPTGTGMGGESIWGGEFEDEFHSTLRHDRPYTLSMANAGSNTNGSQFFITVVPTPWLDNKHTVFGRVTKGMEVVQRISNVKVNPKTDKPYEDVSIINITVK
# assay-summary: Chymotrypsin coupled prolyl-isomerase assay
# Format: biochemical
# protocol-conditions: wild-type PPWD1; read-out: Wild-Type Cyclophilin Prolyl Isomerase Inhibition IC50 Values, PPWD1
assay-readout: IC50 (µM)
Record the value in µM, omitting the unit from your answer.

Consider the reported IC50 for these compounds:
compound	IC50 / µM
NCCOCCNC(=O)[C@@H]1CCNC(=O)/C=C/C(=O)N2CCC[C@](Cc3ccccc3)(C2)C(=O)N[C@@H](Cc2ccc(-c3ccc(CC(=O)O)cc3)cc2)C(=O)NCc2ccccc2CC(=O)N1	50
NCCOCCNC(=O)C1CCNC(=O)C=CC(=O)N2CCCC(C2)C(=O)NC(Cc2ccc(C(=O)c3ccccc3)cc2)C(=O)NCc2ccccc2CC(=O)N1 (centres unmarked)	100

Next item in the queue.
Query block: Endpoint output: IC50 of NCCOCCNC(=O)C1CCNC(=O)C=CC(=O)N2CCCC(Cc3ccccc3)(C2)C(=O)NC(Cc2ccco2)C(=O)NCc2ccccc2CC(=O)N1 (centres unmarked) . Value?
Result block: 3.4
